// reported GI50 per item
- Tested on: EKVX
- assay_summary: NCI tumour cell line growth inhibition, 48 h
Active and inactive are the calls of the source. Cut-off read from the data, not from the text of the source: active = GI50 up to about 1.1 µM and inactive = higher.

[
  {
    "molecule": "C#CCCCCC#Cc1ccccc1C(=O)C=[N+]=[N-]",
    "GI50": "> 100 µM (inactive)"
  },
  {
    "molecule": "CC12CC(c3ccccc3O1)C(C(=O)Nc1ccc(F)cc1)C(=O)N2 (configuration not stated)",
    "GI50": "45.2 µM (inactive)"
  },
  {
    "molecule": "COC(=O)/C=C\\C(C#N)(C#N)/N=C/c1ccc(Br)cc1",
    "GI50": "14.2 µM (inactive)"
  },
  {
    "molecule": "CC(=O)c1cc(S(=O)(=O)c2ccc(O)c(C(C)=O)c2)ccc1O",
    "GI50": "> 100 µM (inactive)"
  },
  {
    "molecule": "CCCN1C(=O)C/C(=C\\C(C)=O)Nc2ccccc21",
    "GI50": "> 100 µM (inactive)"
  },
  {
    "molecule": "COC(=O)CCN1CCN(CCO)CC1C (configuration not stated)",
    "GI50": "> 10 µM (inactive)"
  },
  {
    "molecule": "O=C(O)c1cc2ccccc2c(/N=N/c2c([N+](=O)[O-])cc([N+](=O)[O-])cc2S(=O)(=O)O)c1O",
    "GI50": "> 100 µM (inactive)"
  }
]

* * *

- Tested on: SNB-75
- assay_summary: NCI tumour cell line growth inhibition, 48 h
Calls of active or inactive are those of the source. No stated cut-off is given here; in the data, active = GI50 up to about 1.1 µM and inactive = higher.
Possible outcomes: active, inactive

[
  {
    "compound": "CCCCC1C=Cn2c(=O)oc3c(OC(C)C)c(C)c(O)c1c32 (stereo not given)",
    "category_label": "active"
  },
  {
    "compound": "COc1ccc(N[S+]([O-])CCc2ccccc2)cc1 (stereo not given)",
    "category_label": "inactive"
  },
  {
    "compound": "O=S(=O)(c1ccccc1)n1cnc(CCc2ccccc2)n1",
    "category_label": "inactive"
  },
  {
    "compound": "O=C1/C(=C\\c2cccs2)Oc2ccccc21",
    "category_label": "inactive"
  },
  {
    "compound": "COc1ccc(/C=C/C(=O)NCC(NC(=O)/C=C/c2ccc(OC)c(OC)c2)C(=O)O)cc1OC (stereo not given)",
    "category_label": "inactive"
  },
  {
    "compound": "COc1cc([C@@H]2c3cc4c(cc3[C@@H](Nc3ccc(/N=C\\c5ccc(C(=O)O[C@@H](C(=O)O[C@H]6C[C@@]7(O)[C@@H](OC(=O)c8ccccc8)[C@@H]8[C@]9(OC(C)=O)CO[C@@H]9C[C@H](O)[C@@]8(C)C(=O)[C@H](OC(C)=O)C(=C6C)C7(C)C)[C@@H](NC(=O)c6ccccc6)c6ccccc6)cc5)cc3)[C@H]3COC(=O)[C@H]23)OCO4)cc(OC)c1O",
    "category_label": "inactive"
  },
  {
    "compound": "COc1cc(/C=C2\\CCC(C)/C(=C\\c3cc(OC)c(OC)c(OC)c3)C2=O)cc(OC)c1OC (stereo not given)",
    "category_label": "inactive"
  },
  {
    "compound": "N[C@@H]1CCN(c2c(F)cc3c(=O)c(C(=O)O)cn4c3c2Oc2cc3c(ccc5ccccc53)cc2-4)C1",
    "category_label": "inactive"
  },
  {
    "compound": "COc1ccc2oc3c(C)cc4c(OC)nnc(OC)c4c3c2c1",
    "category_label": "inactive"
  },
  {
    "compound": "Cc1nc2c(n1Cc1ccc(Cl)cc1)C(=O)c1ccccc1C2=O",
    "category_label": "inactive"
  }
]
